Data origin: patent US20040037843A1

# assay target: HLA-A*6802 (human)
# test method notes: competition with 125I-labeled probe peptide for purified HLA, gel filtration
pIC50: −log10 of the molar value.
measured parameter: pIC50

binder	test result
ATFDIESKV [Peptide 1418.30]	6.59
